# TEST SYSTEM: BACE1 (HTRF long substrate and FRET short substrate assays of Example 9D)
# PROCEDURE SUMMARY: cell-based or functional assay
PROPERTY MEASURED: EC50, FRET short substrate (nM)
Reply numerically in nM, unit not repeated.

Enquiry: Which EC50, FRET short substrate is listed for 5888 (antibody, V domains shown, anti-BACE1 IgG) VH: QVQLVQSGAEVKKPGSSVKVSCKASGGTFWKYAISWVRQAPGQGLEWMGNIIPGFGTANYAQKFRGRVTITADESTSTAYMELSSLRSEDTAVYYCARSGGTKYGMLDVWGQGTMVTVSS VL: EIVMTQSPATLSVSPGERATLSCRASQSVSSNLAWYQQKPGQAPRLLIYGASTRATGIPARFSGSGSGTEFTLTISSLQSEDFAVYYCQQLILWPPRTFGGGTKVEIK ?
Return: 0.602
